All figures here come from patent US20220363665A1.

Reported values of pIC50 for individual entries
Molecular target: human TLR9 (Homo sapiens, UniProt Q9NR96)
Sequence (Q9NR96 26-1032): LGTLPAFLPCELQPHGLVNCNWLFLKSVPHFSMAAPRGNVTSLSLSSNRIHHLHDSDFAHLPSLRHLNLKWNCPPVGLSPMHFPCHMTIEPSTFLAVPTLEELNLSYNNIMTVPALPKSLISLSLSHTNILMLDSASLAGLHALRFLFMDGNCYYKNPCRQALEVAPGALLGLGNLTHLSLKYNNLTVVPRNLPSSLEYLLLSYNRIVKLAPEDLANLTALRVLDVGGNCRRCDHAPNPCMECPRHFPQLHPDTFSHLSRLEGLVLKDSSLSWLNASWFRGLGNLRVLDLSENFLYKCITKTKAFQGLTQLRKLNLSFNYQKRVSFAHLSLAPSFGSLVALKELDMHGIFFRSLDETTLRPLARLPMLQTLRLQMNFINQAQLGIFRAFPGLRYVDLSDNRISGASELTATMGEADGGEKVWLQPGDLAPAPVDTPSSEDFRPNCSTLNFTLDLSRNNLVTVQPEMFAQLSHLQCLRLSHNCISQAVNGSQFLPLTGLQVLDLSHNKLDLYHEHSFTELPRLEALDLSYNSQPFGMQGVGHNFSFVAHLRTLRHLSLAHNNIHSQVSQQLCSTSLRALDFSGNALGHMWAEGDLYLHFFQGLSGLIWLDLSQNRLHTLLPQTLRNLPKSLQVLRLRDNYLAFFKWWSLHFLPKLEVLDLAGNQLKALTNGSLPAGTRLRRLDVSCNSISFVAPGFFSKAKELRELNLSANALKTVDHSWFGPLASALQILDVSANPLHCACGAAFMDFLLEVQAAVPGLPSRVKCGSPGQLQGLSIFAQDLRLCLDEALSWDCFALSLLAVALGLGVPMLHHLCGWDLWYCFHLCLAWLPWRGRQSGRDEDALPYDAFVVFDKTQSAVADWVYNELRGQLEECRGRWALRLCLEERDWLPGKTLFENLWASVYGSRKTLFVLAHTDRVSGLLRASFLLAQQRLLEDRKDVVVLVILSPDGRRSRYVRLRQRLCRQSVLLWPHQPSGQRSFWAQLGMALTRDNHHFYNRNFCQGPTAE
Assay: HEK293-Blue-hTLR-9 cells assay (SEAP reporter, ODN2006 stimulation)
Details: HEK293-Blue-hTLR9 cells, ODN2006, 20 hrs
Scale: negative log10 of molar concentration, which is what pIC50 denotes.

C[C@@H]1CN(c2ccc(C(F)(F)F)c3ncccc23)C[C@H](C(=O)NCC(C)(C)N)O1: 4.53

Data request: Reported pIC50 for C[C@@H]1CN(c2ccc([N+](=O)[O-])c3ncccc23)C[C@H](C(=O)NCC2CN(C)CCO2)O1 (stereo partly drawn) : what is it?
Data returned: 4.26

Data request: Please give the result for C[C@@H]1CN(c2ccc(C(F)(F)F)c3ncccc23)C[C@H](C(=O)NC2CC3CCCC(C2)N3)O1 (single isomer, unassigned) [Example 34A] too.
Data returned: 5.07

Data request: Next compound: C[C@@H]1CN(c2ccc(I)c3ncccc23)C[C@H](C(=O)NC2CNCC2F)O1 (stereo partly drawn)
Data returned: 4.65

Data request: Now the compound C[C@@H]1CN(c2ccc(C(F)(F)F)c3ncccc23)C[C@H](C(=O)NC2CC3CNCC(C3)C2)O1 (stereo partly drawn)
Data returned: 5.11

Data request: Also need C[C@@H]1CN(c2ccc(Cl)c3ncccc23)C[C@H](C(=O)N[C@H]2CNC[C@H]2F)O1 , thanks.
Data returned: 4.43
